assay: Solubility; type: physicochemical; conditions: 50 mm phosphate buffer, aqueous buffer; phosphate buffer 50 mM, pH 8.0; read-out: soluble up to concentration
MEASURE: solubility

Fill in: solubility of `O=C(O)CCC(=O)Nc1ccc(OC(=O)Cc2ccc(NC(=O)C(F)(F)F)cc2)cc1` is ___ ≥ 100 µM

###

Please provide measured hydrolysis by 22F5 for the entries that follow.
tested on: 22F5; test: Hydrolysis of reactant ligands by receptor 22F5; format: biochemical, mouse; details: pH 8.0; receptor/ligand uM, time h: 17 1/10, 2; 18 2/10, 24; 20 2/10, 0.33; 5 1/5, 0.33; 22 5/10, 3.5; preliminary

Can you look up hydrolysis by 22F5 on 22F5 for CC(=O)Oc1cccc2ccccc12 [Compound 18] ? 100 percentage of reactant ligand

Requested read-out hydrolysis by 22F5, target or system 22F5, entry CC(=O)Nc1ccc(CC(=O)Oc2cccc3ccccc23)cc1 [Compound 17] 51 percentage of reactant ligand

Fill in the recorded hydrolysis by 22F5 for this compound, with 22F5 as test system: CC(=O)Nc1ccc(CC(=O)Oc2ccccc2)cc1 [Compound 22] 26 percentage of reactant ligand

What is its hydrolysis by 22F5 for 22F5? Entry: CC(=O)Nc1ccc(CC(=O)Oc2ccc3c(C)cc(=O)oc3c2)cc1 [Compound 20] 48 percentage of reactant ligand

Item O=C(Cc1ccc(NC(=O)C(F)(F)F)cc1)Oc1ccc2ccc(=O)oc2c1 [Compound 5] with 22F5 - hydrolysis by 22F5? 48 percentage of reactant ligand

###

Test system: 7E5
Assay: Hydrolysis of reactant ligands by receptor 7E5
Format: biochemical, mouse
Conditions: pH 8.0; receptor/ligand uM, time h: 17 1/10, 2; 18 2/10, 24; 20 2/10, 0.33; 5 1/5, 0.33; 22 5/10, 3.5; preliminary
Protocol: ^1 Preliminary initial hydrolyses shown as the percentage of admixed reactant ligand consumed for catalyzed and spontaneous hydrolyses. "--" = No hydrolysis observed. "NT" = Not tried. All reactions were carried out at pH 8.0 in a 50 mM phosphate buffer unless otherwise noted. Hydrolytic percentages were determined by HPLC using a Hitachi model 655A12 liquid chromatograph with a C18 Vydac 201TP54 column, except as noted below. […] and 20 were assayed using fluorescence data. […]
Assignment: determine reported hydrolysis by 7E5 for the given compounds.

Using the record for `CC(=O)Nc1ccc(CC(=O)Oc2cccc3ccccc23)cc1` , report its hydrolysis by 7E5. 30 percentage of reactant ligand

Consider the compound shown here: `O=C(Cc1ccc(NC(=O)C(F)(F)F)cc1)Oc1ccc2ccc(=O)oc2c1` What is its recorded hydrolysis by 7E5? 8 percentage of reactant ligand

Consider the compound shown here: `CC(=O)Nc1ccc(CC(=O)Oc2ccccc2)cc1` What is its recorded hydrolysis by 7E5? 9 percentage of reactant ligand

Which hydrolysis by 7E5 reading was recorded for the compound `CC(=O)Oc1cccc2ccccc12` ? 76 percentage of reactant ligand

I'd like to know its hydrolysis by 7E5. The compound in question is `CC(=O)Nc1ccc(CC(=O)Oc2ccc3c(C)cc(=O)oc3c2)cc1` 15 percentage of reactant ligand

###

tested on: hog liver esterase; type: biochemical; details: pig, 5 µM, pH 8
Hi there, I'd appreciate the recorded t1/2 Esterase for every entry that follows.
Expressed in min, but write only the number.

Any idea what t1/2 Esterase was measured for `CC(=O)Nc1ccc(CC(=O)Oc2ccc(NC(C)=O)cc2)cc1` ? 4

Query: t1/2 Esterase; subject: `CC(=O)Nc1ccc(OC(=O)Cc2ccc(NC(=O)C(F)(F)F)cc2)cc1` 4

Look up t1/2 Esterase for this compound: `CC(=O)Nc1ccc(CC(=O)Oc2ccc(NC(=O)C(F)(F)F)cc2)cc1` 5

Tell me the measured t1/2 Esterase of `O=C(Cc1ccc(NC(=O)C(F)(F)F)cc1)Oc1ccccc1` , please. 2

Any idea what its t1/2 Esterase is? The compound is `O=C(O)CCC(=O)Nc1ccc(OC(=O)Cc2ccc(NC(=O)C(F)(F)F)cc2)cc1` 52

###

I'd be grateful if you could share measured Ki for these entries.
target: monoclonal antibody P3 6D4; assay: Kinetics and inhibition of catalytic ester hydrolysis by monoclonal antibody P3 6D4, spectrophotometric at 245 nm; type: biochemical, mouse; details: substrate Compound 7; read-out: inhibition constant ki, catalytic reaction with Compound 7
All answers are understood in nM, so give the number only.

# Ki lookup, item `CC(=O)Nc1ccc(OP(=O)(O)Cc2ccc(NC(=O)C(F)(F)F)cc2)c(CNC(=O)c2cccc(C(=O)O)n2)c1` 160

Requested field: Ki. Item: `CC(=O)Nc1ccc(OP(=O)(O)Cc2ccc(NC(=O)C(F)(F)F)cc2)cc1` 800

###

biological target: Monoclonal Receptor 22F5; assay: Kinetics of hydrolysis by receptor 22F5; format: biochemical, mouse; conditions: inhibitor Compound 12i (25 and 100 nM), substrate Compound 20; figure = Ki × 10^7
MEASURE: Ki (nM)
Write the value in nM as a bare number.

May I ask what Ki has been recorded for Cc1ccc2cccc(NP(=O)(O)Cc3ccc(NC(=O)C(F)(F)F)cc3)c2n1 [Compound 12i] ? 70

###

target: Monoclonal Receptor 37G2; assay: Kinetics of hydrolysis by receptor 37G2; conditions: inhibitor Compound 12i (100 and 300 nM), substrate Compound 17; figure = Ki × 10^7
MEASURE: pKi
Friendly reminder that pKi comes from taking -log10 of the concentration in mol/L.

I am curious: what pKi value has been reported for Cc1ccc2cccc(NP(=O)(O)Cc3ccc(NC(=O)C(F)(F)F)cc3)c2n1 [Compound 12i] ? 6.85

###

assay: Solubility; type: physicochemical; settings: aqueous buffer, read-out: concentration above which solutions become slightly turbid
MEASURE: solubility (µM)
I only need the number, in µM, no unit after it.

What value of solubility has been reported for the following compound? CC(=O)Nc1ccc(OC(=O)Cc2ccc(NC(=O)C(F)(F)F)cc2)cc1 [Compound 7] 15

###

experiment: Metal chelate formation constants, potentiometric titration; assay type: physicochemical; details: titrimetric analysis, estimated; read-out: formation constants of 1:1 chelates with divalent metal ions
MEASURE: Kd

Fill in: Kd of CCOP(=O)(Cc1ccc(NC(=O)C(F)(F)F)cc1)Oc1ccc(NC(C)=O)cc1CNC(=O)c1cccc(C(=O)OC)n1 (stereo not shown) is ___ 10 to 100 µM
